Origin of the recorded values: ChEMBL document CHEMBL3868625

Each entry below carries its reported inhibition.
# targetEntity: Calcium release-activated calcium channel protein 1 (Homo sapiens)
# protocolDetails: Inhibition of Orai1-mediated store operated Ca2+ entry in human MDA-MB-231 cells assessed as reduction of SERCA inhibition-induced ER release at 100 uM preincubated for 15 mins followed by CPA addition by PBX-based FLIPR assay
# Format: cell-based
# Sequence (Q96D31 whole entry, looked up): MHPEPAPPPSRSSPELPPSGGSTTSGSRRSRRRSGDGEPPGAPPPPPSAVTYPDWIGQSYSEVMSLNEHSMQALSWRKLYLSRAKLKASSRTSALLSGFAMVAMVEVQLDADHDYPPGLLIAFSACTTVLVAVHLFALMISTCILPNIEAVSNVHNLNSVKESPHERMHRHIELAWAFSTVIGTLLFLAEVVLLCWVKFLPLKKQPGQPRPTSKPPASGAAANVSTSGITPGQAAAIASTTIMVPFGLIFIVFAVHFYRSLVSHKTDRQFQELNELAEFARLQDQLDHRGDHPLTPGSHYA

CCC(C)c1ccc(OCCOc2ccc(Cl)cc2/C=N/n2cnnc2)cc1 (stereo not given) :: < 10%

For record CCC(C)n1ncn(-c2ccc(N3CCN(c4ccc(OCC5COC(Cn6cncn6)(c6ccc(Cl)cc6Cl)O5)cc4)CC3)cc2)c1=O (stereo not given) the listed inhibition is < 10%

For record OCc1ccc(-c2nn(Cc3ccccc3)c3ccccc23)o1 the listed inhibition is < 10%

For record Cc1nnsc1C(=O)Nc1ccc(-n2nc(C(F)(F)F)cc2C(F)(F)F)cc1 the listed inhibition is < 10%

For record O=C(Nc1ccc(-n2nc(C(F)(F)F)cc2C(F)(F)F)cc1)c1ccc(Cl)cc1 the listed inhibition is < 10%

====

# targetEntity: Calcium release-activated calcium channel protein 1 (Homo sapiens)
# protocolDetails: Inhibition of Orai1 (unknown origin) by patch clamp assay
# Sequence (Q96D31 whole entry): as the sequence (Q96D31 whole entry, looked up) above
recordedEndpoint: pIC50
# pIC50: negative log10 of molar concentration; output just the value

For record COc1ccc(OC)c(-c2ccc(N(C)C(=O)c3ccncc3F)cc2)c1 the listed pIC50 is 7.59

====

# targetEntity: Calcium release-activated calcium channel protein 1 (Homo sapiens)
# protocolDetails: Inhibition of Orai1-mediated store operated Ca2+ entry in human MDA-MB-231 cells assessed as reduction in BAPTA-induced Ca2+ depletion-stimulated SOCE activity at 100 uM preincubated for 15 mins followed by BAPTA addition in presence of extracellular Ca2+ by PBX-based FLIPR assay relative to control
# Format: cell-based
Each entry below carries its reported inhibition.

Some compounds with recorded inhibition:
CCC(C)c1ccc(OCCOc2c(Cl)cccc2/C=N/n2cnnc2)cc1 (stereo not drawn) :: 22%
CCC(C)c1ccc(OCCOc2c(Cl)cc(Cl)cc2C=O)cc1 (stereo not drawn) :: < 10%
OCc1ccc(-c2nn(Cc3ccccc3)c3ccccc23)o1 :: < 10%
Cc1nn(-c2ccc(NC(=O)c3ccc4c(c3)OCO4)cc2)c(C)c1Br :: < 10%
CCC(NC(=O)Nc1ccc(Cl)cc1)c1ccc(C)cc1 (stereo not drawn) :: < 10%
CC(C)(C)c1ccc(OCCOc2c(Cl)cc(Cl)cc2/C=N/n2cnnc2)cc1 :: 11%

For record Clc1cc(Cl)c(OCCOc2cccnc2)c(/C=N/n2cnnc2)c1 the listed inhibition is < 10%

For record CCC(C)c1ccc(OCCOc2ccc(Cl)cc2/C=N/n2cnnc2)cc1 (stereo not drawn) the listed inhibition is < 10%
